Entries and their GI50 values follow.
- Test system: OVCAR-4
- Protocol Text: NCI tumour cell line growth inhibition, 48 h
Counter-ions that a name gives are not always drawn. Active and inactive are the calls of the source. No stated cut-off is given here; in the data, active = GI50 up to about 1.1 µM and inactive = higher.

Exercise: Please report the recorded GI50 for `COC(=O)Nc1cc(OCCCOC(C)=O)c2[nH]c(C(=O)OC)cc2c1C[C@H](O)CO` .
Key: > 100 µM (inactive)

Exercise: Proceed to `CCO/C=N\C1=C(C#N)SC2=N/C(=C\c3ccc(OC)cc3)C(=O)N21`
Key: 15.4 µM (inactive)

Exercise: Proceed to OC(CNc1ccccn1)c1ccccc1 (stereo unspecified) [PHENYRAMIDOL HYDROCHLORIDE]
Key: > 100 µM (inactive)

Exercise: Proceed to `O=C(/C=C/c1ccccc1)CCN1CCN(CCC(=O)/C=C/c2ccccc2)CC1`
Key: 16.5 µM (inactive)

Exercise: Proceed to `Cc1cc(C)c2c(O)cc(-c3cccc(F)c3)nc2n1`
Key: 4.08 µM (inactive)

Exercise: Proceed to N#CCCN(CCC#N)c1ccc(C(Sc2ccccc2)C(NC(=O)c2cc([N+](=O)[O-])ccc2Cl)C(=O)Sc2ccccc2)cc1 (stereo unspecified)
Key: 6.15 µM (inactive)

====

- Tested on: OVCAR-3
- Protocol Text: NCI tumour cell line growth inhibition, 48 h
Calls of active or inactive are those of the source. No stated cut-off is given here; in the data, active = GI50 up to about 1.1 µM and inactive = higher.
Returns: one label drawn from YES for active, NO for inactive

N[C@H](CCC(=O)NCP(=O)(O)O)C(=O)O: NO

--- query ---
Exercise: Entry `COC1(OC)C[C@H](C)[C@@]23O[C@]24c2cc(O)c5c(c2N[C@H]3C#C/C=C\C#C[C@]14O)C(=O)c1ccccc1C5=O` : call = ?
Key: YES

====

Entries and their GI50 values follow.
- Test system: A498
- Protocol Text: NCI tumour cell line growth inhibition, 48 h
Activity calls are given as the source filed them. Cut-off read from the data, not from the text of the source: active = GI50 up to about 1.1 µM and inactive = higher.

// known answers, use as guide
Cc1cccc(NC(=O)c2cccc([N+](=O)[O-])c2O)c1C: 28.5 µM (inactive)
CCCC1NC(C#N)(C#N)C(CCC)NC1(C#N)C#N (stereo unspecified): 21.7 µM (inactive)
O=C(Nc1ccc(Cl)cc1)Oc1ccc(C(=S)Nc2ccc(Br)cc2)cc1: 19.1 µM (inactive)

Exercise: Fill in the recorded GI50 for this compound, with A498 as test system: `CCOP(=O)(OCC)C(F)(F)CC1CCCCC1`
Key: > 10 µM (inactive)

Exercise: Proceed to `CN(NC(=O)c1cccs1)C1=NCCCCN1`
Key: > 100 µM (inactive)

Exercise: Proceed to `O=C(O)c1ccccc1/N=C/c1ccc(N(CCCl)CCCl)cc1`
Key: > 40.5 µM (inactive)

Exercise: Proceed to N#Cc1ccc(C2ON=C(c3ccccc3)N2C23CC4CC(CC(C4)C2)C3)cc1 (stereo unspecified)
Key: > 10 µM (inactive)

Exercise: Proceed to CC1=C(CO)C(=O)OC(C(C)C2CCC3C4CC5OC56C(O)C(N5CC5)=CC(=O)C6(C)C4CCC23C)C1 (stereo unspecified)
Key: 2.11 µM (inactive)

====

- System: HCT-15
Criterion: GI50 strictly less than 10 µM. Met: 1.0. Not met: 0.0.

Cc1ccc2oc(=O)c3c(O)c4cccc(OC5OC(C)C6O[C@@H](c7ccccc7)OC6C5OC5OC(C)C(O)C(O)C5O)c4c4oc(=O)c1c2c34 (stereo not given in full): 1.0
O=C(O)C1=NN=C(C(=O)O)NN1: 0.0
Cc1cccc(Cl)c1NCC(O)CN1CCN(C)CC1 (stereo not given): 0.0
Cc1cc([N+](=O)[O-])ccc1Sc1c2ccccc2nc2ccccc12: 0.0
O=CNC(Cc1c[nH]cn1)C(=O)O (stereo not given): 0.0
CS/C(C#N)=C(\C#N)SC: 1.0
CC(=O)N/C(=C\c1cccc([N+](=O)[O-])c1)c1nc2ccc3c(c2[nH]1)C(=O)c1ccccc1C3=O: 0.0
CN(C)c1n/c(=N/Cc2ccccc2)ss1: 0.0
CC1=C(/C=C/C(C)=C/C=C/C(C)=C/C(=O)OCC2OC(n3cc(F)c(=O)[nH]c3=O)CC2OC(=O)/C=C(C)/C=C/C=C(C)/C=C/C2=C(C)CCCC2(C)C)C(C)(C)CCC1 (stereo not given): 0.0
CCOC(=O)c1nc2cc(F)cc(F)c2[nH]c1=O: 0.0

Exercise: Does the reported GI50 of the following compound sit strictly below 10 µM? COC(=O)[C@]12CCC(C)(C)C[C@H]1C1=CC[C@@H]3[C@@]4(C)CC[C@H](OC5OC(CO)C(O)C(O)C5OC5OC(CO)C(O)C(O)C5O)C(C)(C)[C@@H]4CC[C@@]3(C)[C@]1(C)CC2 (stereo not given in full)
Key: 0.0

Exercise: Proceed to `Nc1nc(Cl)cc(NCCCCCNc2cc(Cl)nc(N)n2)n1`
Key: 0.0

Exercise: Proceed to O=C1CCC(CCc2nc3ccccc3[nH]2)(c2ccccc2)C(=O)N1 (stereo not given)
Key: 0.0

Exercise: Proceed to CC1=CC23C(COC(=O)C24CO4)C(C(=O)O)=CC3C1C (stereo not given)
Key: 0.0

Exercise: Proceed to `CCCCCc1cc2c(cc1O)CC[C@@H]1[C@@H]2CC[C@]2(C)[C@@H](O)CC[C@@H]12`
Key: 0.0

Exercise: Proceed to `Cc1ccc(S(=O)(=O)N/N=C/C(Br)=C(/Br)C(=O)O)cc1`
Key: 1.0
